Origin of the recorded values: patent US20250313625A1

- Target: T1, hFc tagged human LAG3 ECD recombinant protein (human, UniProt P18627 23-450)
- T1 construct: range 23-450; also called biotin labelled hFc tagged human LAG3 ECD; not shown: human IgG Fc tag
- T1 sequence (looked up): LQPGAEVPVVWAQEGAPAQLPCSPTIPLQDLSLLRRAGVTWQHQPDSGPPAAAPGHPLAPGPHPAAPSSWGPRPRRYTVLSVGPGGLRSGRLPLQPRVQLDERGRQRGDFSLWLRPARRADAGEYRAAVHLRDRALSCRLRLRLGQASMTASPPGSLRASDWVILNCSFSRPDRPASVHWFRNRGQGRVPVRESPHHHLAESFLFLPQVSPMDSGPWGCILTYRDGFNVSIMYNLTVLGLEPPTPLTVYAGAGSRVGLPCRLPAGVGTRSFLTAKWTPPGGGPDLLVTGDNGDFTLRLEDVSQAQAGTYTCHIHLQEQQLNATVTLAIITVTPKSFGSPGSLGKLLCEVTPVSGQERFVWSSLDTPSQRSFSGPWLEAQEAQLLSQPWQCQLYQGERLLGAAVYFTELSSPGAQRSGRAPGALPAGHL
- Method Description: competitive ELISA: excess competitor, biotin hFc-LAG3 ECD, coated BAP-050
Reported Property: % competition (%)
Please state the figure in %; there is no need to write the unit.

Binder: Antibody 048 (antibody, V domains shown, mouse hybridoma antibody) VH: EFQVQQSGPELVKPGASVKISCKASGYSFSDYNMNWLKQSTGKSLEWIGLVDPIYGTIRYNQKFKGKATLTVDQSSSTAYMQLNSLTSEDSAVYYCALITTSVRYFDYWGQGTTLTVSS VL: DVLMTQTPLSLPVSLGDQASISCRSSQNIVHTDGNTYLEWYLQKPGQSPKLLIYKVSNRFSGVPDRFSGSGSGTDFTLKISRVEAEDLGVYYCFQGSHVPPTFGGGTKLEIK
% competition / %: 10

Quick one: % competition of Antibody 035 (antibody, V domains shown, mouse hybridoma antibody) VH: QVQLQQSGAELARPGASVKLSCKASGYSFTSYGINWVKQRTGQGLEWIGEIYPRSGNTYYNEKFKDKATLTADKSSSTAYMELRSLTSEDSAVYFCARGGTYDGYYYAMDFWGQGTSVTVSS VL: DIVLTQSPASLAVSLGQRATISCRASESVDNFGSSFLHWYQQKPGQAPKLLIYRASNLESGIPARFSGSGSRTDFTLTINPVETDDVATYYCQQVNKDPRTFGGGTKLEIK ?
91.9
